# measured-on: CDK2/cyclin A (Homo sapiens, UniProt P24941)
# Construct: made in house; host or cells: CDK2: insect cells (baculovirus); cyclin A: E. coli
# protocol-description: Inhibition of CDK2/cyclin A retinoblastoma kinase activity (Ki; % inhibition)
# Type: biochemical
# condition-context: at 0.03 μM
recorded-endpoint: CDK2 % Inhibition at 0.03 μM
Write the numeric value and append its unit.

compound	measured-on	recorded-endpoint	observed-value
CCN1CCN(C(=O)c2ccc(Nc3nc(N)c(C(=O)c4c(F)cccc4F)s3)cc2)CC1	CDK2/cyclin A (Homo sapiens, UniProt P24941)	CDK2 % Inhibition at 0.03 μM	15%
CC(=O)Nc1ccc(NC(=O)c2ccc(Nc3nc(N)c(C(=O)c4c(F)cccc4F)s3)cc2)cc1	CDK2/cyclin A (Homo sapiens, UniProt P24941)	CDK2 % Inhibition at 0.03 μM	26%
Nc1nc(Nc2ccc(C(=O)N3CCSCC3)cc2)sc1C(=O)c1c(F)cccc1F	CDK2/cyclin A (Homo sapiens, UniProt P24941)	CDK2 % Inhibition at 0.03 μM	3%
Nc1nc(Nc2ccc(C(=O)Nc3ccc(Cl)c(Cl)c3)cc2)sc1C(=O)c1c(F)cccc1F	CDK2/cyclin A (Homo sapiens, UniProt P24941)	CDK2 % Inhibition at 0.03 μM	9%

Next item in the queue.
[ask] What measured CDK2 % Inhibition at 0.03 μM goes with `Nc1nc(Nc2ccc(C(=O)Nc3ccccc3CO)cc2)sc1C(=O)c1c(F)cccc1F` ?
[reply] 17%

---

# measured-on: CDK2/cyclin A (Homo sapiens, UniProt P24941)
# Construct: cyclin A: E. coli
# protocol-description: Inhibition of CDK2/cyclin A retinoblastoma kinase activity (Ki; % inhibition)
# condition-context: apparent Ki, CDK2/cyclin A, Rb substrate
Counter-ions that a name gives are not always drawn.
recorded-endpoint: pKi
# reply with the number alone; pKi is -log10 of concentration in mol/L

Record excerpt, results attached:
compound	recorded-endpoint	observed-value
CC(C)[C@H](CN(C)C)NC(=O)c1ccc(Nc2nc(N)c(C(=O)c3c(F)cccc3F)s2)cc1 [Example A47]	pKi	7.26
CN1CCC[C@@H]1CNC(=O)c1ccc(Nc2nc(N)c(C(=O)c3c(F)cccc3F)s2)cc1 [Example A34]	pKi	7.00
C[C@H](CN(C)C)NC(=O)c1ccc(Nc2nc(N)c(C(=O)c3c(F)cccc3F)s2)cc1 [Example A40, Dihydrochloride]	pKi	7.03
CCN1CCC[C@H]1CNC(=O)c1ccc(Nc2nc(N)c(C(=O)c3c(F)cccc3F)s2)cc1 [Example A38]	pKi	6.85

[ask] What measured pKi goes with CN1CCC[C@@]1(C)CNC(=O)c1ccc(Nc2nc(N)c(C(=O)c3c(F)cccc3F)s2)cc1 [Example A74, Trifluoroacetic Acid Salt] ?
[reply] 8.01

[ask] What measured pKi goes with CC1(C)CCCC(C)(C)N1CCNC(=O)c1ccc(Nc2nc(N)c(C(=O)c3c(F)cccc3F)s2)cc1 [Example A53] ?
[reply] 6.92

[ask] What measured pKi goes with Nc1nc(Nc2ccc(C(=O)NC[C@@H]3CCCN3)cc2)sc1C(=O)c1c(F)cccc1F [Example A8] ?
[reply] 7.27

---

CDK2 % Inhibition at 0.03 μM by entry:
# measured-on: CDK2/cyclin A (Homo sapiens)
# Construct: made in house; host or cells: CDK2: insect cells (baculovirus); cyclin A: E. coli
# protocol-description: Inhibition of CDK2/cyclin A retinoblastoma kinase activity (Ki; % inhibition)
# Assay type: biochemical
# condition-context: at 0.03 μM
// units = %; emit number, no label

Record excerpt, results attached:
compound	observed-value
Cc1cccc(Cl)c1NC(=O)c1ccc(Nc2nc(N)c(C(=O)c3c(F)cccc3F)s2)cc1 [Example G15]	−12
N#Cc1cccc(NC(=O)c2ccc(Nc3nc(N)c(C(=O)c4c(F)cccc4F)s3)cc2)c1 [Example G60]	12
CN(C)CCCCCCNC(=O)c1ccc(Nc2nc(N)c(C(=O)c3c(F)cccc3F)s2)cc1 [Example G99]	−16

[ask] API: value(readout= CDK2 % Inhibition at 0.03 μM, system= CDK2/cyclin A (Homo sapiens), query= CN(C)CCCNC(=O)c1ccc(Nc2nc(N)c(C(=O)c3c(F)cccc3F)s2)cc1 [Example G119] )
[reply] 11

[ask] API: value(readout= CDK2 % Inhibition at 0.03 μM, system= CDK2/cyclin A (Homo sapiens), query= Nc1nc(Nc2ccc(C(=O)NCCCN3CCCC3)cc2)sc1C(=O)c1c(F)cccc1F [Example G158] )
[reply] 22

[ask] API: value(readout= CDK2 % Inhibition at 0.03 μM, system= CDK2/cyclin A (Homo sapiens), query= CC(C)CCCC(C)NC(=O)c1ccc(Nc2nc(N)c(C(=O)c3c(F)cccc3F)s2)cc1 (centres unmarked) [Example G141] )
[reply] 0

[ask] API: value(readout= CDK2 % Inhibition at 0.03 μM, system= CDK2/cyclin A (Homo sapiens), query= Nc1nc(Nc2ccc(C(=O)NCCCn3ccnc3)cc2)sc1C(=O)c1c(F)cccc1F [Example G143] )
[reply] 2

[ask] API: value(readout= CDK2 % Inhibition at 0.03 μM, system= CDK2/cyclin A (Homo sapiens), query= NC(=O)C1CCN(C(=O)c2ccc(Nc3nc(N)c(C(=O)c4c(F)cccc4F)s3)cc2)CC1 [Example G43] )
[reply] 5

Reference source: patent US6720346B2
